Measured IC50, listed per entry.
Tested on: Influenza A virus
ASSAY_NOTES: Antiviral activity against influenza A virus (A/Puerto Rico/8/34(H1N1)) infected in MDCK cells assessed as inhibition of virus-induced cytopathic effect incubated for 48 hrs by crystal violet staining based assay
Assay type: functional, organism-based
STUDY_CONDITIONS: A/Puerto Rico/8/1934(H1N1)
State the value, then name its unit.

// query Find the measured IC50 of COC(=O)C[C@@H]1[C@@]2(C)[C@H]3CC[C@]4(C)C(=C3[C@@]3(O)[C@@H](OC(C)=O)C(=O)[C@]1(C)C[C@@]23O)CC(=O)O[C@H]4c1ccoc1 with Influenza A virus as test system.
// result 77.1 µM

// query Report the value of IC50 obtained on Influenza A virus for COC(=O)C[C@H]1[C@@]2(C)C[C@]3(O)[C@H](C(=O)[C@H]2OC(C)=O)C2=C4CC(=O)O[C@@H](c5ccoc5)[C@]4(C)CC[C@@H]2[C@]13C .
// result 114 µM

// query Provide measured IC50 on Influenza A virus for NC(=O)c1ncn([C@@H]2O[C@H](CO)[C@@H](O)[C@H]2O)n1 please.
// result 186 µM

// query Specify the recorded IC50 for COC(=O)C[C@H]1[C@@]2(C)C[C@]3(O)[C@H](C(=O)[C@H]2OC(C)=O)C2=C(CC[C@]4(C)C2=CC(=O)O[C@H]4c2ccoc2)[C@]13C , system: Influenza A virus.
// result 122 µM
